assay: logP determination by HPLC (reversed-phase C18, EEC Directive 79/831 Annex V.A8); assay type: physicochemical; conditions: HPLC, acidic range pH 2.3, 0.1% aqueous phosphoric acid/acetonitrile; marked a); read-out: log P (pH 2.3)
Measurement name: chromatographic logP
Number, no unit, nothing else.

• CCOC(=O)N(C)c1ccc(-c2ccc(C3CCC(c4c(F)cccc4F)=N3)cc2)cc1 (centres unmarked) [Compound 37] = 2.92
• CCCOC(=O)Nc1ccc(-c2ccc(C3CCC(c4c(F)cccc4F)=N3)cc2)cc1 (centres unmarked) [Compound 2] = 3.02
• CCCOC(=O)Nc1ccc(Br)cc1 [III-2, n-propyl 4-bromophenylcarbamate] = 3.12
• CC(C)CCOC(=O)Nc1ccc(-c2ccc(C3CCC(c4c(F)cccc4F)=N3)cc2)cc1 (centres unmarked) [Compound 21] = 3.72
• CCCCOC(=O)N(C)c1ccc(Br)cc1 [III-3, n-butyl-4-bromophenyl(methyl)carbamate] = 3.88
• O=C(Nc1ccc(-c2ccc(C3CCC(c4c(F)cccc4F)=N3)cc2)cc1)OCc1ccco1 (centres unmarked) [Compound 26] = 3.01

Q: Return chromatographic logP (reported value) for this compound: CCCN(CCC)CCOC(=O)Nc1ccc(-c2ccc(C3CCC(c4c(F)cccc4F)=N3)cc2)cc1 (centres unmarked) [Compound 29]
Ans: 1.74

Q: Give chromatographic logP for the following compound: CCCCCCOC(=O)Nc1ccc(-c2ccc(C3CCC(c4c(F)cccc4F)=N3)cc2)cc1 (centres unmarked) [Compound 19]
Ans: 4.46

Q: For the compound CC(C)COC(=O)Nc1ccc(-c2ccc(C3CCC(c4c(F)cccc4F)=N3)cc2)cc1 (centres unmarked) [Compound 8] , give its reported chromatographic logP.
Ans: 3.32

Q: Give me measured chromatographic logP, please, for this compound: CCCCOC(=O)Nc1ccc(-c2ccc(C3CCC(c4c(F)cccc4F)=N3)cc2)cc1 (centres unmarked) [Compound 9]
Ans: 3.44

Q: Read the entry CC(C)OC(=O)Nc1ccc(-c2ccc(C3CCC(c4c(F)cccc4F)=N3)cc2)cc1 (centres unmarked) [Compound 7] and write its reported chromatographic logP.
Ans: 3
